tested on: Danio rerio larvae (5 dpf); test: optomotor response to fast red moving lines, difference vs DMSO (percentage points (treated minus DMSO)); higher = more of the behaviour than the DMSO vehicle control; conditions: 10 µM; exposure time: 3 h pre-incubation + 3 h imaging
Where a name gives a salt, the structure may show the parent alone.
Please provide measured optomotor response for the entries that follow.

Specify measured optomotor response for CC(O)(CS(=O)(=O)c1ccc(F)cc1)C(=O)Nc1ccc(C#N)c(C(F)(F)F)c1 (stereo not given) [Bicalutamide] .
-2.63

Specify measured optomotor response for "C=C1C[C@@H]2[C@H](CC[C@]3(C)C(=O)CC[C@@H]23)[C@@]2(C)C=CC(=O)C=C12" .
5.64

Specify measured optomotor response for "CC[C@@H](C(N)=O)N1CCCC1=O" .
-4.73

Specify measured optomotor response for COc1cc2c(cc1OC)C1CC(=O)C(CC(C)C)CN1CC2 (stereo not given) .
-22.5

Specify measured optomotor response for N[C@@H]1C[C@H]1c1ccccc1 [Tranylcypromine hydrochloride] .
11.9

The reported measurements were obtained from the supplement of paper PMC9023506.
